Data provenance is ChEMBL document CHEMBL4190365.

Exercise: for every item that follows, state its recorded IC50.
Tested on: MCF7
Experiment: Cytotoxicity in human MCF7 cells assessed as reduction in cell viability incubated for 72 hrs by calcein AM cytotoxicity assay
Assay type: functional, cell-based
Settings: Homo sapiens, MCF7, 72 h

Known results for compounds:
| smiles-entry | IC50 |
| --- | --- |
| CC(=O)O[C@H]1CC[C@]2(C)[C@H]3CC[C@@H]4C5=C(C(C)C)C(=O)C[C@]5(C(=O)OCCN5CCCCC5)CC[C@@]4(C)[C@]3(C)CC[C@H]2C1(C)C | 7 µM |
| CC(=O)OC[C@@]1(C(=O)OCC(=O)O)CC[C@]2(C)[C@H](CC[C@@H]3[C@@]4(C)CC[C@H](OC(C)=O)C(C)(C)[C@@H]4CC[C@]32C)C1=O | > 50 µM |

Please find the next compound below.
input: So what's the measured IC50 for this one? C=C(C)[C@@H]1CC[C@]2(C(=O)O[C@@H]3O[C@H](CO)[C@@H](O)[C@H](O)[C@H]3O)CC[C@]3(C)[C@H](CC[C@@H]4[C@@]5(C)CC[C@H](O)C(C)(C)[C@@H]5CC[C@]43C)[C@@H]12
output: > 50 µM

* * *

Tested on: G-361
Assay: Cytotoxicity in human G361 cells assessed as reduction in cell viability incubated for 72 hrs by calcein AM cytotoxicity assay
Assay type: functional, cell-based
Details: Homo sapiens, G-361, 72 h
We label by threshold. Values of IC50 strictly beneath 8 µM are y. Values of 8 µM and up are n.

input: Please determine if CC(=O)OC[C@H]1O[C@@H](OC(=O)[C@]23CC[C@@H](C(C)C)[C@@H]2[C@H]2CC[C@@H]4[C@@]5(C)CC[C@H](O)C(C)(C)[C@@H]5CC[C@@]4(C)[C@]2(C)CC3)[C@H](OC(C)=O)[C@@H](OC(C)=O)[C@H]1OC(C)=O is below 8 µM in terms of IC50.
output: y

input: Is it true that IC50 reported for CC(=O)OC[C@@]1(C(=O)OCC(=O)OCc2ccccc2)CC[C@]2(C)[C@H](CC[C@@H]3[C@@]4(C)CC[C@H](OC(C)=O)C(C)(C)[C@@H]4CC[C@]32C)C1=O is less than 8 µM?
output: n

input: Please check: IC50 for CC(=O)OC[C@@]1(C(=O)OCC(=O)O)CC[C@]2(C)[C@H](CC[C@@H]3[C@@]4(C)CC[C@H](OC(C)=O)C(C)(C)[C@@H]4CC[C@]32C)C1=O , strictly under 8 µM or not?
output: n

input: Is IC50 strictly under 8 µM for the entry CC(=O)O[C@H]1CC[C@]2(C)[C@H]3CC[C@@H]4C5=C(C(C)C)C(=O)C(=O)[C@]5(C(=O)OCCN5CCOCC5)CC[C@@]4(C)[C@]3(C)CC[C@H]2C1(C)C ?
output: y

input: Answer whether the compound C=C(C)[C@@H]1CC[C@]2(C(=O)OCCN3CCOCC3)CC[C@]3(C)[C@H](CC[C@@H]4[C@@]5(C)CC[C@H](O)C(C)(C)[C@@H]5CC[C@]43C)[C@@H]12 has IC50 strictly less than 8 µM
output: n

input: Is IC50 strictly under 8 µM for the entry C=C(C)[C@@H]1CC[C@]2(C(=O)O[C@@H]3O[C@H](CO)[C@H](O)[C@H](O)[C@H]3O)CC[C@]3(C)[C@H](CC[C@@H]4[C@@]5(C)CC[C@H](O)C(C)(C)[C@@H]5CC[C@]43C)[C@@H]12 ?
output: n
